Each entry below carries its reported IC50.
- experimental-protocol: Cytotoxicity against human 518A2 cells after 96 hrs by SRB assay
- Assay type: functional, cell-based
readout-kind: IC50

[[record]]
record_smiles = "COC(=O)[C@@]1(C)CC[C@]2(C)CC[C@]3(C)C(=CC(=O)[C@@H]4[C@@]5(C)CC[C@H](OC(=O)[C@H](CSC(=O)OC(C)(C)C)NC(=O)OC(C)(C)C)C(C)(C)[C@@H]5CC[C@]43C)[C@@H]2C1"
reported_measurement = "> 30 µmol"

[[record]]
record_smiles = "COC(=O)[C@@]1(C)CC[C@]2(C)CC[C@]3(C)C(=CC(=O)[C@@H]4[C@@]5(C)CC[C@H](OC(=O)[C@H](CSCc6ccccc6)NC(=O)OC(C)(C)C)C(C)(C)[C@@H]5CC[C@]43C)[C@@H]2C1"
reported_measurement = "> 30 µmol"

[[record]]
record_smiles = "CCOC(=O)[C@@]1(C)CC[C@]2(C)CC[C@]3(C)C(=CC(=O)[C@@H]4[C@@]5(C)CC[C@H](OC(=O)CCC(=O)O)C(C)(C)[C@@H]5CC[C@]43C)[C@@H]2C1"
reported_measurement = "28.99 µmol"

[[record]]
record_smiles = "COC(=O)[C@@]1(C)CC[C@]2(C)CC[C@]3(C)C(=CC(=O)[C@@H]4[C@@]5(C)CC[C@H](OS(=O)(=O)c6ccc(C)cc6)C(C)(C)[C@@H]5CC[C@]43C)[C@@H]2C1"
reported_measurement = "> 30 µmol"

[[record]]
record_smiles = "COC(=O)[C@@]1(C)CC[C@]2(C)CC[C@]3(C)C(=CC(=O)[C@@H]4[C@@]5(C)Cc6nccnc6C(C)(C)[C@@H]5CC[C@]43C)[C@@H]2C1"
reported_measurement = "> 30 µmol"


###

- experimental-protocol: Cytotoxicity against human 518A2 cells after 96 hrs by SRB assay
- Type: functional, cell-based
Reported IC50 values follow for various compounds
readout-kind: IC50 (µmol)

[[record]]
record_smiles = "CCOC(=O)[C@@]1(C)CC[C@]2(C)CC[C@]3(C)C(=CC(=O)[C@@H]4[C@@]5(C)CCC(=O)OC(C)(C)[C@@H]5CC[C@]43C)[C@@H]2C1"
unit_tag = "µmol"
value_prefix = ">"
reported_measurement = 30

[[record]]
record_smiles = "CC1(C)[C@@H](OC(=O)CNCCCN)CC[C@]2(C)[C@H]3C(=O)C=C4[C@@H]5C[C@@](C)(C(=O)OCc6ccccc6)CC[C@]5(C)CC[C@@]4(C)[C@]3(C)CC[C@@H]12"
unit_tag = "µmol"
value_prefix = "="
reported_measurement = 5.14

[[record]]
record_smiles = "COC(=O)[C@@]1(C)CC[C@]2(C)CC[C@]3(C)C(=CC(=O)[C@@H]4[C@@]5(C)CC/C(=N\\OC(C)C)C(C)(C)[C@@H]5CC[C@]43C)[C@@H]2C1"
unit_tag = "µmol"
value_prefix = ">"
reported_measurement = 30

[[record]]
record_smiles = "CCOC(=O)[C@@]1(C)CC[C@]2(C)CC[C@]3(C)C(=CC(=O)[C@@H]4[C@@]5(C)CC=CC(C)(C)[C@@H]5CC[C@]43C)[C@@H]2C1"
unit_tag = "µmol"
value_prefix = ">"
reported_measurement = 30

[[record]]
record_smiles = "COC(=O)[C@@]1(C)CC[C@]2(C)CC[C@]3(C)C(=CC(=O)[C@@H]4[C@@]5(C)CC[C@H](OC(=O)[C@@H](N)CSCc6ccccc6)C(C)(C)[C@@H]5CC[C@]43C)[C@@H]2C1"
unit_tag = "µmol"
value_prefix = "="
reported_measurement = 16.78

